# subjectOfTest: Alpha-2C adrenergic receptor (Homo sapiens)
# experiment: compounds altering alpha2C-coupled GIRK flux – cell-based, HEK293 alpha2C/GIRK1/2, thallium flux, primary screen (AID 624);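 further: slope of fluorescence ratio to pre-addition baseline per second over 15 to 24 s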
# conditionSummary: thallium flux BTC fluorescence, at 10 µM, actives lie on both sides
propertyMeasured: slope

>>> experimentalvalue("CCOC(=O)c1ccccc1NC(=O)c1ccc(NS(C)(=O)=O)cc1")
0.00606
>>> experimentalvalue("CC(C)(O)C1=NOC(c2ccccc2)C1 (configuration not stated)")
0.00603
>>> experimentalvalue("CC(C)C(OC(=O)c1ccco1)C(=O)NCc1ccccc1 (configuration not stated)")
0.00599
>>> experimentalvalue("CCCNC(=O)c1ccccc1C(=O)NCCC")
0.00613
>>> experimentalvalue("Cn1c(=O)c2c(nc(-n3ccnc3)n2C)n(C)c1=O")
0.00573
>>> experimentalvalue("COc1ccc(C(c2nnnn2C2CCCC2)N2CCN(C3CCCC3)CC2)cc1OC (configuration not stated)")
0.00468
>>> experimentalvalue("CSc1nc(=NC(C)=O)ss1")
0.00608
>>> experimentalvalue("O=C(Nc1nc(-c2ccccn2)cs1)C1CC1")
0.00645
>>> experimentalvalue("CCOc1cccc2cc(C(=O)N3CCN(C/C=C/c4ccccc4)CC3)c(=O)oc12")
0.00413
>>> experimentalvalue("CCn1c(=O)cc(OCC(=O)Nc2nc(C)cs2)c2ccccc21")
0.00615
>>> experimentalvalue("O=C(NCC1CCCO1)C1CCN(c2ccc(S(=O)(=O)N3CCCC3)cc2)CC1 (configuration not stated)")
0.0046
>>> experimentalvalue("CCOC(=O)c1cc(C(C)(C)C)oc1CN")
0.00475
>>> experimentalvalue("O=C(Cn1nc(Cc2ccncc2)c2ccccc2c1=O)N1CCc2ccccc2C1")
0.0064
>>> experimentalvalue("Cc1ccc(-c2nnc3c4ccccc4c(C)nn23)cc1NC(=O)c1ccco1")
0.00729
>>> experimentalvalue("CC(C)OC(=O)CN1C(=O)C(C)(C)Oc2ccc(C(=O)NC3CC3)cc21")
0.00477
>>> experimentalvalue("COc1cc(OC)c(-c2nn3c(C4CCCCC4)nnc3s2)cc1OC")
0.00604
>>> experimentalvalue("C[C@@H]1C[C@H](O)c2cc(Cl)ccc2N1")
0.0061
>>> experimentalvalue("N#CC(C(=O)NCCc1ccccc1)c1nc2ccccc2nc1N1CCOCC1 (configuration not stated)")
0.00348
>>> experimentalvalue("CCn1c2ccccc2c2cc(N)ccc21")
0.00355
>>> experimentalvalue("CCCS(=O)(=O)N1CCN(C(=O)c2cccnc2)CC1")
0.0059
>>> experimentalvalue("O=C(C(c1ccccc1)c1ccccc1)N1CCN(Cc2ccccn2)CC1")
0.00484
>>> experimentalvalue("Cn1c(=O)c2c(nc(SCCOc3ccc4ccc(=O)oc4c3)n2C)n(C)c1=O")
0.00534
>>> experimentalvalue("O=C(CCSc1nc(-c2ccco2)cc(C(F)(F)F)n1)NCCc1ccccc1")
0.00564
>>> experimentalvalue("CC(=O)Nc1ccc(S(=O)(=O)N2CCN=C2C)cc1")
0.00377
>>> experimentalvalue("FC(F)(F)c1cc(-c2ccccc2)nc(N2CCCCC2)n1")
0.00434
>>> experimentalvalue("COc1ccc(NC(=O)C(C)Oc2ccc(/C(C)=N\\O)cc2)cc1 (configuration not stated)")
0.00609
>>> experimentalvalue("COc1cc(CN(C)CC(=O)c2[nH]c(C)c(C(C)=O)c2C)ccc1OC(F)F")
0.00408

====

# experiment: TLR3 IRF3 reporter activation blockers – cell-based, poly I:C stimulus, luciferase, 10K MLSCN set, primary screen (AID 602277)
# conditionSummary: HEK293-TLR3 RL24 IRF3 luciferase reporter, at 10 µM, stronger effect = higher value
propertyMeasured: inhibition (%)

>>> experimentalvalue("Cc1nc2c(-c3ccccc3)c(C)nn2c(C)c1CCC(=O)O")
20
>>> experimentalvalue("COc1ccc(C2CC(c3ccco3)n3ncnc3N2)cc1 (configuration not stated)")
39.2
>>> experimentalvalue("O=C1CC(c2cccc(Cl)c2)Cc2nc(N3CCN(c4ccccc4)CC3)ncc21 (configuration not stated)")
-2.99
>>> experimentalvalue("COc1ccc(N2CCN(c3ccc(N)cc3C#N)CC2)cc1")
21.5
>>> experimentalvalue("COc1ccc(CN(Cc2nc3ccccc3c(=O)[nH]2)C(=O)NC2CCCCC2)cc1")
29.3
>>> experimentalvalue("CCCS(=O)(=O)N1CCN(Cc2ccc(OCc3ccccc3)c(OC)c2)CC1")
-19.3
>>> experimentalvalue("CCOC(=O)N1CCC(NC(=O)c2cnn3ccccc23)CC1")
9.82

====

This section presents molecules with their documented nuclei count values.
# experiment: endothelial E-selectin expression blockers – imaging, HUVEC, immunofluorescence, MLSMR starter and 10KST1 sets, primary screen (AID 487);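 further: 100% = median nuclei count of all wells on the same plate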
# conditionSummary: HUVEC TNFalpha-induced E-selectin immunofluorescence imaging, at 2 µM; measured here: cell number, toxicity
propertyMeasured: nuclei count (%)

>>> experimentalvalue("CC(=O)Nc1nc(=S)ss1")
120
>>> experimentalvalue("COc1ccccc1N1CCN(c2cc(=O)n(Cc3ccc(F)cc3)c(=O)[nH]2)CC1")
106
>>> experimentalvalue("CCCCC(=O)NCCc1ccc(S(N)(=O)=O)cc1")
88.9
>>> experimentalvalue("Cn1c(=O)c(=O)n(C)c2cc(S(=O)(=O)N3CCN(c4cccc(C(F)(F)F)c4)CC3)ccc21")
104
>>> experimentalvalue("COC(=O)Cn1c(=O)c2c(nc(Br)n2CC(=O)OC)n(C)c1=O")
101
>>> experimentalvalue("CC1CCCCN1C(=O)Cn1nnc(-c2cccnc2)n1 (centres undefined)")
95.3
>>> experimentalvalue("CCCCOC(=O)CNc1nnc(SCC(=O)OCC)[nH]c1=O")
110
>>> experimentalvalue("O=S(c1ccsc1)c1ccsc1")
99.8
>>> experimentalvalue("Cc1nc2sc(C(c3ccccc3)N3CCN(c4ccccc4F)CC3)c(O)n2n1 (centres undefined)")
91.8
>>> experimentalvalue("CNC(=O)c1ccsc1NC(=O)c1ccccc1")
88.8
>>> experimentalvalue("CCOC(=O)Cc1ccc(NS(=O)(=O)c2ccc(SC)cc2)cc1")
109
>>> experimentalvalue("Cc1cnc(C(=O)OCC(=O)Nc2ccc(Oc3ccccc3)cc2)cn1")
122
>>> experimentalvalue("COc1ccc(CCNC(=O)C2CCN(S(=O)(=O)c3cc(OC)ccc3OC)CC2)cc1")
98.3
>>> experimentalvalue("CCOC(=O)c1c(C)[nH]c(C)c1C(=O)COC(=O)CNC(=O)c1ccc(OCC)cc1")
104
>>> experimentalvalue("c1ccc(OCc2nc(-c3ccccc3)no2)cc1")
91.1
>>> experimentalvalue("O=C(C1CCCO1)N1CCN(Cc2nc3ccccc3c(=O)[nH]2)CC1 (centres undefined)")
104
>>> experimentalvalue("COc1ccc(C)cc1NC(=O)C1CCN(S(=O)(=O)c2cccc3cccnc23)CC1")
106
>>> experimentalvalue("N#CC(C(=O)NCCc1ccccc1)c1nc2ccccc2nc1N1CCOCC1 (centres undefined)")
118
>>> experimentalvalue("CC1(C)CC(=O)c2sc(NS(C)(=O)=O)nc2C1")
106
>>> experimentalvalue("O=C(NCC1COc2ccccc2O1)c1ccccc1 (centres undefined)")
90.3
>>> experimentalvalue("CCCSc1nc(N)c(C#N)c(-c2ccc(C)cc2)c1C#N")
141
>>> experimentalvalue("CCn1nnc(NC(=O)c2ccc(-c3ccc(Cl)cc3)o2)n1")
208
>>> experimentalvalue("O=C1c2ccccc2C(Nc2cccnc2)N1Cc1ccccc1Cl (centres undefined)")
109
>>> experimentalvalue("C=CCn1c(SCC(=O)c2cc(C)n(C(C)COC)c2C)nc2sc(C)c(C)c2c1=O (centres undefined)")
100
>>> experimentalvalue("CCOC(=O)c1cc2c(=O)n3cccc(C)c3nc2n(CCOC)c1=NC(=O)c1ccncc1")
96.5
>>> experimentalvalue("Cc1cnc(C(=O)Nc2nnc(C(C)C)s2)cn1")
118
>>> experimentalvalue("CC1CCN(C(=O)CSc2nc3ccccc3[nH]2)CC1")
88.9
>>> experimentalvalue("Cc1cc(C)n(C2=NS(=O)(=O)c3ccccc32)n1")
78.2
>>> experimentalvalue("CCOc1ccc(Oc2nc(Nc3ccc(C)cc3)nc(N(C)C)n2)nn1")
106
>>> experimentalvalue("Cc1onc(-c2ccccc2)c1C(=O)Nc1sc2c(c1C(N)=O)CCC2")
139
>>> experimentalvalue("CCCCCn1c(CN2CCN(c3cccc(Cl)c3)CC2)nc2c1c(=O)n(C)c(=O)n2C")
113
>>> experimentalvalue("CC(C)(C)C1CCc2[nH]nc(C(=O)O)c2C1 (centres undefined)")
121
>>> experimentalvalue("CCOC(=O)c1oc2ccccc2c1NC(=O)c1cccc(OC)c1OC")
82.8
>>> experimentalvalue("COC(=O)c1ccc2c(=O)n(CC3CCCO3)c(=S)[nH]c2c1 (centres undefined)")
94.3
